measurement.target: human recombinant IL-17A (Homo sapiens)
Construct: purchased R&D Systems 7955-IL/CF
Sequence (Q16552 24-155): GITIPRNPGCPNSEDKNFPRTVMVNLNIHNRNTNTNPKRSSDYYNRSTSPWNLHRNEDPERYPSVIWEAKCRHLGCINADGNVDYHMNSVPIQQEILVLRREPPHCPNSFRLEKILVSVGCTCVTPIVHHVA
measurement.notes: IL-17A AlphaLISA assay (block binding of IL-17A to its receptor IL-17RA)
run.parameters: compounds pre-incubated with the IL-17A for 30 min (indicated by * in Table A); read-out: AlphaLISA pIC50 (converted)
observed.property: IC50 (nM)

Example entries and their recorded answers appear below.
{"compound": "CCn1nccc1C(=O)N[C@H](C(=O)Nc1ccc(-c2c(C)c[n+]([O-])cc2C)cn1)[C@H]1CC[C@H](C)CC1 [Example 139]", "readout.unit": "nM", "IC50": 126}
{"compound": "CCn1nccc1C(=O)N[C@H](C(=O)Nc1ccc(-c2c(C)cnn2C)cn1)[C@H]1CC[C@H](C)CC1 [Example 126]", "readout.unit": "nM", "IC50": 50.1}
{"compound": "COCc1nocc1C(=O)N[C@H](C(=O)Nc1ccc(-c2c(C)cnn2C)cn1)C1CCCCCC1 [Example 137]", "readout.unit": "nM", "IC50": 200}
{"compound": "CCn1nncc1C(=O)N[C@H](C(=O)Nc1ccc(-c2c(C)cnn2C)cn1)C1CCCCCC1 [Example 141]", "readout.unit": "nM", "IC50": 158}
{"compound": "Cc1cnn(C)c1-c1ccc(NC(=O)[C@@H](NC(=O)c2ccnn2C)C2CCCCC2)nc1 [Example 177]", "readout.unit": "nM", "IC50": 200}
{"compound": "Cc1noc(C)c1-c1cnc(NC(=O)[C@@H](NC(=O)c2ccnn2C)C2CCCCCC2)cn1 [Example 158]", "readout.unit": "nM", "IC50": 631}
{"compound": "Cc1cncc(C)c1-c1ccc(NC(=O)[C@@H](NC(=O)c2ccnn2C)C2CCC(C)(C)CC2)cc1 (single isomer, unassigned) [Example 100]", "readout.unit": "nM", "IC50": 200}
{"compound": "Cc1noc(C)c1-c1ccc(NC(=O)[C@@H](NC(=O)c2ccnn2C)C2CCCCCC2)cn1 [Example 172]", "readout.unit": "nM", "IC50": 200}

[1] Cc1nn(C)c(-c2ccc(NC(=O)[C@@H](NC(=O)c3ccnn3C)C3CCCCCC3)nc2)c1C [Example 195]
[2] CCn1nccc1C(=O)N[C@H](C(=O)Nc1ccc(-c2c(C)noc2C)nc1)C1CCCCCC1 [Example 169]
[3] Cc1nocc1C(=O)N[C@H](C(=O)Nc1ccc(-c2c(C)noc2C)cn1)C1CCCCCC1 [Example 116]
[4] Cc1nocc1C(=O)N[C@H](C(=O)Nc1ccc(-c2c(C)noc2C)cn1)C1CCCCC1 [Example 121]
[5] CCn1nccc1C(=O)N[C@H](C(=O)Nc1ccc(-c2c(Cl)cnn2C)cn1)C1CCCCCC1 [Example 176]
Ascending by IC50, please: list the compounds accordingly. Answer by writing out the labels in the requested order.
5, 3, 2, 4, 1
(5: 39.8 nM, 3: 63.1 nM, 2: 100 nM, 4: 251 nM, 1: 501 nM)

[a] Cc1cnn(C)c1-c1ccc(NC(=O)[C@@H](NC(=O)c2ccnn2C)[C@H]2CC[C@H](C)CC2)nc1 [Example 106]
[b] Cc1cnn(C)c1-c1cnc(NC(=O)[C@@H](NC(=O)c2ccnn2C)C2CCCCCC2)nc1 [Example 165]
I'd appreciate it if you could identify which of a and b has the greater IC50. # respond with the chosen item's label
b
